Data origin, for the record: PubChem BioAssay (NCI)

Test system: A498 renal
Assay: NCI tumour cell line growth inhibition, 48 h
Where a SMILES comes first, the peptide text is derived from it. [ ]: non-standard residue; d: D form. Ava = NCCCCC(=O)O; Mpa = O=C(O)CCS
Let's look at some compounds and their measured TGI.
observedProperty: TGI

INSERT INTO results (compound, resultvalue) VALUES
  ('Cc1cccc(NC(=O)c2c(N)[n+]([O-])c3ccccc3[n+]2[O-])c1', '29.8 µM'),
  ('Cc1cc(=O)[nH]c2cc(NC(=O)C(C)NC(=O)C(C)NC(=O)C(C)NC(=O)OC(C)(C)C)ccc12 (configuration not stated)', '> 15 µM'),
  ('Cn1c(=O)nc2n(-c3ccc(Br)cc3)c3ccccc3nc-2c1=O', '26.9 µM'),
  ('CC(NC(=O)CCS)C(=O)NC(C)C(=O)NC(Cc1c[nH]c2ccccc12)C(=O)NC(Cc1c[nH]cn1)C(=O)NC(CO)C(=O)NC(Cc1c[nH]c2ccccc12)C(=O)NCCCCC(=O)NC(C)C(=O)NC(CCC(N)=O)C(=O)NC(CCCCN)C(=O)NC(C)C(=O)NC(CCCNC(=N)N)C(=O)NC(CCCCN)C(N)=O (configuration not stated) ([Mpa]AAWHSW[Ava]AQKARK-NH2; configuration not given here)', '> 100 µM'),
  ('CC(C#N)(NO)C(C)(C#N)NO (configuration not stated)', '> 100 µM'),
  ('C/C(Cc1ccc2c(c1)OCO2)=N\N=c1\sc2ccccc2n1C', '> 100 µM'),
  ('CC(=O)CC[N+](C)(C)C', '91.9 µM'),
  ('C=CC[P@]1(=O)O[C@H](c2ccccc2)C(C)N1C(C)C (some centres not stated)', '> 100 µM'),
  ('O=C(O)c1cccc([As]=[As]c2cccc(C(=O)O)c2)c1 (configuration not stated)', '75.7 µM'),
  ('O=C1OC(c2ccc([N+](=O)[O-])cc2)=N/C1=C\c1ccc(Cl)cc1', '> 100 µM'),
  ('COC(=O)NC1(NC(=O)OC)NC(=O)c2ccccc2N1', '> 100 µM'),
  ('N#CN1CC[C@@H]2CC3(CCC2C1)OCCO3 (some centres not stated)', '> 100 µM');

---

System: NCI-H522 lung
Test: NCI tumour cell line growth inhibition, 48 h
observedProperty: TGI (µM)

INSERT INTO results (molecule, comparisonsign, resultvalue) VALUES
  ('C=CC[P@]1(=O)O[C@H](c2ccccc2)C(C)N1C(C)C (some centres not stated)', '>', 100),
  ('O=C(CC1(O)C(=O)Nc2ccccc21)c1ccc(Cl)c(Cl)c1 (configuration not stated)', '>', 100),
  ('CCC1(O)C(=O)OCc2c1cc1n(c2=O)Cc2cc3cc4c(cc3nc2-1)OCO4 (configuration not stated)', '=', 0.383),
  ('N[C@H]1CCC[C@@H](O)C1O (some centres not stated)', '>', 100),
  ('CC(=O)C1=C(C)N(c2ccccc2)C2(O)C3=C(C(=O)c4ccccc4C3=O)C(O)=CC12Cl (configuration not stated)', '=', 5.81),
  ('O=C(O)c1ccc2c(O)c(O)ccc2c1', '=', 36.4),
  ('COc1ccc(Cn2cc3c(c2-c2ccccc2)CCc2cnoc2-3)cc1', '=', 1.15);
